TARGET_SYSTEM: EGFR TMLRCS (BaF3-TMLRCS cell line) (Homo sapiens, UniProt P00533, C797S/L858R/T790M)
Sequence (P00533 25-1210 T790M/C797S/L858R): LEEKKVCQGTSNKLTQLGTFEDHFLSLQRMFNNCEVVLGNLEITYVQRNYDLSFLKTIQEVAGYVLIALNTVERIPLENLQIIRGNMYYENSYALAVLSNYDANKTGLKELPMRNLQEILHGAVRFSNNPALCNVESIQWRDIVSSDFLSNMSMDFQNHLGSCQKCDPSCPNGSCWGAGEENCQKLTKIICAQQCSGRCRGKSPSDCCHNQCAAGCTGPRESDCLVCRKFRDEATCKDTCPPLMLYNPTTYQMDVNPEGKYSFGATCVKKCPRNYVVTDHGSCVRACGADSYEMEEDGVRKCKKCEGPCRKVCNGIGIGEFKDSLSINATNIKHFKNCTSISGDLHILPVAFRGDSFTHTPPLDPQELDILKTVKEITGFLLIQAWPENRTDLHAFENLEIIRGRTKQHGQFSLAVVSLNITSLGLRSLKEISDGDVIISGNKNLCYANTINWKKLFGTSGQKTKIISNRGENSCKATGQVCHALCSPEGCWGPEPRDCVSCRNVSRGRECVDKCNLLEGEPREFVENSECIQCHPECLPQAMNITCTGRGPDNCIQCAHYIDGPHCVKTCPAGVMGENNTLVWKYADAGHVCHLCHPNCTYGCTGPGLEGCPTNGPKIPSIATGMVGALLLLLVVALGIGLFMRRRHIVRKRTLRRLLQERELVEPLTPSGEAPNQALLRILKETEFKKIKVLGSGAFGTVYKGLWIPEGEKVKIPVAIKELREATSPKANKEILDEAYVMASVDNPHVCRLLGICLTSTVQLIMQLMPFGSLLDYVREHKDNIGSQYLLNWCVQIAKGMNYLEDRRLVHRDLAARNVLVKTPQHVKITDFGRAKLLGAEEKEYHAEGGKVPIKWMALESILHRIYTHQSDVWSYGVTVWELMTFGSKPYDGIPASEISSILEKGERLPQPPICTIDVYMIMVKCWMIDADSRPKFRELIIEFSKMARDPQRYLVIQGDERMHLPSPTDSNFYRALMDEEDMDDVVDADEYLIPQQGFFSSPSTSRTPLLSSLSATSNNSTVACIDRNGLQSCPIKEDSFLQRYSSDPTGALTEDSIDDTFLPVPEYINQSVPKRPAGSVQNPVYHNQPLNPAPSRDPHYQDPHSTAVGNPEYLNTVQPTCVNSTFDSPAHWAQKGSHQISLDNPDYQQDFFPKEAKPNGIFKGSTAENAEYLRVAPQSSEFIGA
PROTOCOL_NOTES: HTRF Phospho EGFR TMLRCS Assay (Cellular)
MEASUREMENT_SETUP: BaF3-TMLRCS cells, 4 hours incubation
QUANTITY: pIC50
Answers are plain numbers, as −log10 of the molar value.

# lookup: O=C(Nc1nccs1)C(c1ncn2c1C[C@@H](F)C2)n1cc2c(Cl)cc(-c3ccc(N4CCOCC4)cc3)c(Cl)c2n1 (stereo partly shown) on EGFR TMLRCS (BaF3-TMLRCS cell line) (Homo sapiens, UniProt P00533, C797S/L858R/T790M), pIC50 = 8.30

// provenance: patent US12344613B2
